# EXPERIMENTAL_PROTOCOL: Components of the Cytosolic LPS Sensing Pathway: Gene Identification via Genome-wide siRNA Screen;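 note: robust z of the log signal after scaling to non-targeting control siRNA wells of the plate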
# CONDITION_DESCRIPTION: RAW264.7 macrophages, IL-1a HTRF, actives lie on both sides, screened at 100 nM (by protocol), cells primed 5 h with Pam3CSK4 first
Out of some 53,000 sequences screened, about 3,700 (7%) were called active. This excerpt belongs to a sample that is enriched for actives.
RECORDED_METRIC: z-score
Keep the answer to the number alone.

Qu. Quick one: z-score for GCAUAAAGCACCCGGAGAGTT against Zbtb32 ?
Ans. -1.53

----------
# EXPERIMENTAL_PROTOCOL: Components of the Cytosolic LPS Sensing Pathway: Gene Identification via Genome-wide siRNA Screen;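 note: robust z of the log signal after scaling to non-targeting control siRNA wells of the plate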
# CONDITION_DESCRIPTION: RAW264.7 macrophages, IL-1a HTRF, actives lie on both sides, screened at 100 nM (by protocol), cells primed 5 h with Pam3CSK4 first
Screen size: about 53,000 sequences; about 3,700 (7%) were called active.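 How the source made its calls: active means gene knockdowns whose robust z-score for IL-1 alpha signal is at least 2 or at most -2, so actives lie on both sides; inactive means the rest.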 Shown is part of a subset that was picked to be rich in actives.
Valid outcomes are listed here; reply with one: yes = active, no = inactive

1. GGUGCAUUAUAAGAAUCGCTT against Fhl1 | no

Qu. Test call, this sequence: GCCUGAGGAAUCGUGACAUTT against Olfr51
Ans. no

Qu. Would you mind doing GGAUCCUCUUGAUCAAGCUTT against Vps53 as well?
Ans. no

Qu. Would you mind doing GGAUCCUAAAACUGAGGAATT against Crtc2 as well?
Ans. no

Qu. Would you mind doing GGAAAUAUGUGUCCGCACUTT against Mfap2 as well?
Ans. no

Qu. Would you mind doing GGCUGUGAGAACGAUGCAATT against Fam151a as well?
Ans. no

----------
# EXPERIMENTAL_PROTOCOL: Components of the Cytosolic LPS Sensing Pathway: Gene Identification via Genome-wide siRNA Screen;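 note: robust z of the log signal after scaling to non-targeting control siRNA wells of the plate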
# CONDITION_DESCRIPTION: RAW264.7 macrophages, IL-1a HTRF, actives lie on both sides, screened at 100 nM (by protocol), cells primed 5 h with Pam3CSK4 first
Screen size: about 53,000 sequences; about 3,700 (7%) were called active. The sample as a whole holds a higher share of actives than the screen did.
This listing pairs sequences with measured z-score.
Keep the answer to the number alone.

Illustrative cases are given below, each with its answer.
1. GGAAGCAUUGAAGAUAAGATT against Topbp1 | -0.273
2. GGUGGAAUAUAGCUUCAUCTT against Ifngr2 | 1.06
3. GGCAUUCGAAGGGACAGAUTT against Arg2 | -2.06
4. GGGAAUAUGUGAAACAGACTT against Syk | -0.229
5. CCUUAAGACCGGAUUUUUUTT against Cyp4f14 | 0.64

Qu. Quick one: z-score for GCUCCGAAGAGCUAAUACUTT against Tmem25 ?
Ans. 0.944

Qu. Would you mind doing GGAAAGGAGAGGUGUGUUCTT against Asb7 as well?
Ans. 0.431

Qu. Would you mind doing CGCUGCAUUAAAGACUAAATT against Kcnj10 as well?
Ans. 0.414

Qu. Would you mind doing GGGUAAACUGUGGAGAAAUTT against Fam214b as well?
Ans. -0.833

Qu. Would you mind doing CGUACUUCAGCGAUUUAAATT against Exoc2 as well?
Ans. 0.555

Qu. Would you mind doing GGCAGUGGAGCUGGACAAATT against Nkx2-5 as well?
Ans. 2.45

Qu. Would you mind doing GCACAACGACCUUUCCAGGTT against Chst12 as well?
Ans. -0.561

Qu. Would you mind doing GGGACAUGUUUUGAUAAAGTT against Yy1 as well?
Ans. -0.591

Qu. Would you mind doing GGAGAUCAGCAGUUCAUUUTT against Csprs as well?
Ans. -1.66

Qu. Would you mind doing GGUGUGUAAUGUGCGUGAGTT against Ephb3 as well?
Ans. 1.11

Qu. Would you mind doing GCUUAUGUCGAAUGAUAGCTT against Id2 as well?
Ans. -4.22

Qu. Would you mind doing GGUGGAGUGAUACGAAGAGTT against Radx as well?
Ans. 1.21

Qu. Would you mind doing GGGCAUCUCAGAUUUAGCUTT against Cct3 as well?
Ans. -0.0572
